Biological target: human GLP-1 receptor (human, UniProt P43220 24-463)
Test: cell-based or functional assay
Square brackets hold non-standard residues; d marks the D form. Ends that are not written are not given here.
attribute measured: EC50 hGLP-1R (pM)
Provide the reading as a plain figure in pM.

Any idea what EC50 hGLP-1R was measured for HXQGTFTSDLSKQKDEEAARLFIEWLXAGGPSSGAPPPS (D-Ser at 2; Lys 14 side chain K(γE-γE-x53) = (S)-4-Carboxy-4-((S)-4-carboxy-4-hexadecanoylamino-butyrylamino)-butyryl-; Aib at 27; C-terminal amide) [SEQ ID NO: 9] ? 1.8

Another binder: H[dS]QGTFTSDLSKQLDEEAARLFIEWLKAGGPSSGAPPPS-NH2 [SEQ ID NO: 34] 0.8

What do we get for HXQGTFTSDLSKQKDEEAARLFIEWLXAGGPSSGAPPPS (D-Ser at 2; Lys 14 side chain K(γE-x53) = (S)-4-Carboxy-4-hexadecanoylamino-butyryl-; Aib at 27; C-terminal amide) [SEQ ID NO: 14] ? 2.1

Another binder to check: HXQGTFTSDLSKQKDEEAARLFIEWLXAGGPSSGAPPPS (D-Ser at 2; Lys 14 side chain K(γE-x70) = (S)-4-Carboxy-4-octadecanoylamino-butyryl-; Aib at 27; C-terminal amide) [SEQ ID NO: 13] 2.7

Another binder to check: HXQGTFTSDLSKQKDEEAARLFIEWLKAGGPSSGAPPPS (D-Ser at 2; Lys 14 side chain K(γE-γE-x53) = (S)-4-Carboxy-4-((S)-4-carboxy-4-hexadecanoylamino-butyrylamino)-butyryl-; C-terminal amide) [SEQ ID NO: 32] 1.9
